conditions: 298.15 K; 101.33 kPa; Liquid; Pycnometric method
quantity: mass density (kg/m3)
Give the value in kg/m3 but do not write kg/m3 after it.

Some molecules with known mass density results, for comparison:
structure_smiles_string | obs_value
CCCCBr | 1265.66
CCCCCCBr | 1166.83

(Q) Quick one: mass density of CCCCCCCCCCCBr ?
(A) 1045.03

(Q) Quick one: mass density of CCCCCCCBr ?
(A) 1132.91

(Q) Quick one: mass density of CCCBr ?
(A) 1344.48

(Q) Quick one: mass density of CCCCCCCCCCBr ?
(A) 1064.47

(Q) Quick one: mass density of CCCCCCCCCBr ?
(A) 1082.2
